The reported numbers originate from patent US8399482B2.

IC50 values, listed per item
target: human recombinant ROCK II (Homo sapiens, UniProt O75116); construct: recombinant human ROCK-II residues 11-552; His6 (N); assay: Determination of Rho kinase inhibition (ROCK II, Caliper peptide phosphorylation assay); settings: respective form (salt or free base) as obtained in the examples, 60 min at 32° C.
Sequence (O75116 11-552): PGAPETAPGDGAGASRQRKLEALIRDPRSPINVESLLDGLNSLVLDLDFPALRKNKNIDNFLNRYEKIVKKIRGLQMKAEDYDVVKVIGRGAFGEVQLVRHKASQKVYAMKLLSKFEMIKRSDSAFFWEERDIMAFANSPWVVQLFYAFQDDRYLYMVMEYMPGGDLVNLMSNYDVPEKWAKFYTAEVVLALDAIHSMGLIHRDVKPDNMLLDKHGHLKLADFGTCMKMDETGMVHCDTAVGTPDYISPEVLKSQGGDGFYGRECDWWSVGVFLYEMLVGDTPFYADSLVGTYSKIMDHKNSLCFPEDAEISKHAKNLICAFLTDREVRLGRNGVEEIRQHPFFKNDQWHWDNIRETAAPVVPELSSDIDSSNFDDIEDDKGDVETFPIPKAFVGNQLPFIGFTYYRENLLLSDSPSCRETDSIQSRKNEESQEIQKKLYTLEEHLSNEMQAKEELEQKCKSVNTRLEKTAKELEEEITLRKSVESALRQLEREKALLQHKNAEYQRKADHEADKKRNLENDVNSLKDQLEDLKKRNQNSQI

{"compound": "CCC1(C(C)N)CCC(Oc2cc3cc[nH]c(=O)c3cc2Cl)CC1 (single isomer, unassigned) [Example 3]", "study_system": "human recombinant ROCK II (Homo sapiens, UniProt O75116)", "IC50": "≤ 10 nM"}
{"compound": "CCCC1(C(N)C2CC2)CCC(Oc2cc3cc[nH]c(=O)c3cc2Cl)CC1 (single isomer, unassigned) [Example 7]", "study_system": "human recombinant ROCK II (Homo sapiens, UniProt O75116)", "IC50": "10 to 100 nM"}

Form: compound = CCC(N)C1(CC2CC2)CCC(Oc2cc3cc[nH]c(=O)c3cc2Cl)CC1 (single isomer, unassigned) [Example 12] ; IC50 = ≤ 10 nM
